Field: dTm. Provide a value for each of the compounds that follow.
TEST SYSTEM: ~100 representative kinases (Homo sapiens, UniProt Q16566)
Construct: Recombinant protein kinase domains with a concentration of 2 μM
Sequence (Q16566 1-473): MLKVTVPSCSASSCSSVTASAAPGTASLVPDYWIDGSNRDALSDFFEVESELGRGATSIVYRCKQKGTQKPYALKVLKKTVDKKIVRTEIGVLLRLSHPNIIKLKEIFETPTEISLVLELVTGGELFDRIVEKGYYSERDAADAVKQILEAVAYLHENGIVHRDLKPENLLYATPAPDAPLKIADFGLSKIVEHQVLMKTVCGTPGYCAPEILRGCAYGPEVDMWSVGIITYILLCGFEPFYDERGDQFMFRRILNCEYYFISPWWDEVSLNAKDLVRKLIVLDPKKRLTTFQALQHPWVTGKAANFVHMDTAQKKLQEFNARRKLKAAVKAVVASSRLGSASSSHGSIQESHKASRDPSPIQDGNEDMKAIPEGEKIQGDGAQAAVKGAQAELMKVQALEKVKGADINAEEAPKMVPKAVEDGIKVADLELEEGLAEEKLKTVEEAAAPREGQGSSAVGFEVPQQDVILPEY
TEST PROTOCOL: DSF 100 kinase selectivity screen;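 further: compound tested at 20 µM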
Assay type: binding
MEASUREMENT CONDITIONS: Protein CAMK4; average of three replicates
Protocol: Recombinant protein kinase domains with a concentration of 2 μM were mixed with a 20 μM compound solution in dimethyl sulfoxide (DMSO), 20 mM Hepes (pH 7.5), and 500 mM NaCl. SYPRO Orange (5000×, Invitrogen) was added as a fluorescence probe (1μl/ml). Subsequently, temperature-dependent protein unfolding profiles were measured using the QuantStudio 5 realtime PCR machine (Thermo Fisher Scientific, Waltham, MA, USA). […] The temperature was raised with a step rate of 3°C/min. […]
Answers are plain numbers, in K.

| COMPOUND | dTm, K |
| --- | --- |
| CCSc1nc(NC)c2c(-c3cccc(NC(=O)Nc4cc(C(C)(C)C)nn4-c4ccc(C)cc4)c3)c[nH]c2n1 [Compound 32] | 0.28 |
| O=C(Nc1cccc(-c2c[nH]c3ncnc(N4CCOCC4)c23)c1)C1(C(=O)Nc2ccc(F)c(Br)c2F)CC1 [Compound 26] | 1.91 |
| CCc1ccc(NC(=O)C2(C(=O)Nc3cccc(-c4c[nH]c5ncnc(N6CCOCC6)c45)c3)CC2)cc1 [Compound 15] | 2.51 |

Please state dTm for every compound in the list that follows.
1. Cc1ccc(C(=O)Nc2ccc(CN3CCN(C)CC3)c(C(F)(F)F)c2)cc1C#Cc1cnc2cccnn12 [Ponatinib, reference compound]
2. C[C@@H]1CN(c2cc(-c3n[nH]c4ccc(OC5(C)CC5)cc34)ncn2)C[C@H](C)O1 [MLi2]

[out]
1. 1.32
2. 1.22
